test-target: Beta-3 adrenergic receptor (Homo sapiens)
Sequence (P13945 whole entry): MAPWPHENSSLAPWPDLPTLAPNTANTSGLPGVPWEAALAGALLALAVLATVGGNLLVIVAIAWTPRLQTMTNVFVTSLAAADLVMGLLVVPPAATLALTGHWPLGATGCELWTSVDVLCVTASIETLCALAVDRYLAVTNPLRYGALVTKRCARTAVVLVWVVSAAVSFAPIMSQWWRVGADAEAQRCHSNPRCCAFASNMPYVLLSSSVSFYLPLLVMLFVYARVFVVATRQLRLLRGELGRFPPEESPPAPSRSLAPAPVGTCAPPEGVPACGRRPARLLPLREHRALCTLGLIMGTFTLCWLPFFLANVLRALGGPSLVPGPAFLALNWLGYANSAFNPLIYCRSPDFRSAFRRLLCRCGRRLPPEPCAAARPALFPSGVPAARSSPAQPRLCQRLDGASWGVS
protocol: Agonist activity at human recombinant beta3 adrenergic receptor expressed in CHO cells assessed as cAMP accumulation by enzyme immuno assay
observed-property: pEC50
Answers are plain numbers, as −log10 of the molar value.

CCCOc1cc(-c2ccc(OCCNC[C@H](O)c3ccccc3)cc2)ccc1C(=O)O	8.92

Provide reported pEC50 for each item, in the same order as listed.
1. CC(C)COc1cc(-c2ccc(OCCNC[C@H](O)c3ccccc3)cc2)ccc1C(=O)O
2. O=C(O)c1ccc(-c2ccc(OCCNC[C@H](O)c3ccccc3)cc2)cc1OC1CCCCC1
3. CC(C)Cc1cc(-c2ccc(CCN[C@@H](C)[C@H](O)c3ccccc3)cc2)ccc1C(=O)O
4. CCCOc1cc(-c2ccc(CCN[C@@H](C)[C@H](O)c3ccccc3)cc2)ccc1C(=O)O
5. C[C@H](Cc1ccc(-c2ccc(C(=O)O)c(OC3CCCCC3)c2)cc1)NC[C@H](O)c1cccnc1
6. CC(C)Oc1cc(-c2ccc(CCNC[C@H](O)c3ccc(N)cc3)cc2)ccc1C(=O)O
7. CC(C)Oc1cc(-c2ccc(C[C@@H](C)NC[C@H](O)c3cccc(Cl)c3)cc2)ccc1C(=O)O
8. CC(C)Oc1cc(-c2ccc(C[C@@H](C)NC[C@H](O)c3cccnc3)cc2)ccc1C(=O)O

Reply:
1. 9.26
2. 9.80
3. 9.85
4. 9.37
5. 10.16
6. 8.59
7. 9.72
8. 10.00

Provide reported pEC50 for each item, in the same order as listed.
1. CC(C)Oc1cc(-c2ccc(C[C@H](CO)NC[C@H](O)c3ccccc3)cc2)ccc1C(=O)O
2. O=C(O)c1ccc(-c2ccc(OCCNC[C@H](O)c3cccc(Cl)c3)cc2)cc1OC1CCCCC1
3. CC(C)Oc1cc(-c2ccc(CCNC[C@H](O)c3cccc(O)c3)cc2)ccc1C(=O)O
4. C[C@H](Cc1ccc(-c2ccc(C(=O)O)cc2)cc1)NC[C@H](O)c1cccnc1
5. CC(C)Cc1cc(-c2ccc(CCNC[C@H](O)c3ccc(N)nc3)cc2)ccc1C(=O)O
6. COc1cc(-c2ccc(C[C@@H](C)NC[C@H](O)c3ccccc3)cc2)ccc1C(=O)O
7. CCCOc1cc(-c2ccc(OCCNC[C@H](O)c3cccc(Cl)c3)cc2)ccc1C(=O)O
8. CC(C)Oc1cc(-c2ccc(CCNC[C@H](O)c3ccc(Cl)cc3)cc2)ccc1C(=O)O

Reply:
[8.13, 9.57, 10.21, 9.31, 10.18, 9.10, 9.68, 8.62]

Provide reported pEC50 for each item, in the same order as listed.
1. CC(C)COc1cc(-c2ccc(OCCNC[C@H](O)c3cccc(Cl)c3)cc2)ccc1C(=O)O
2. CC(C)Cc1cc(-c2ccc(CCNC[C@H](O)c3cccnc3)cc2)ccc1C(=O)O

Reply:
9.49
9.59

====

protocol: Terminal half life in Beagle dog at 0.1 mg/kg, iv by cassette assay
Type: ADME, organism-based, Canis lupus familiaris
Design: dose 0.1 mg/kg, route intravenous
test-settings: in vivo, read-out: beta t1/2 (converted)
observed-property: half-life (h)
Numbers only, in h.

CCOc1cc(-c2ccc(C[C@@H](C)NC[C@H](O)c3ccccc3)cc2)ccc1C(=O)O	9.9
C[C@H](Cc1ccc(-c2ccc(C(=O)O)c(OC3CCCCC3)c2)cc1)NC[C@H](O)c1ccccc1	0.35
CC(C)COc1cc(-c2ccc(C[C@@H](C)NC[C@H](O)c3ccccc3)cc2)ccc1C(=O)O	17.7

Could you now look at the following compound, please?
Ask: Any idea what half-life was measured for `CC(C)Oc1cc(-c2ccc(C[C@@H](C)NC[C@H](O)c3ccccc3)cc2)ccc1C(=O)O` ?
Reply: 15.5
